Source listed as patent US5679677A.

Please provide measured pIC50 for the entries that follow.
MEASURED_TARGET: elastase from human granulocytes (Homo sapiens, UniProt P08246)
Sequence (P08246 30-247 limits assumed): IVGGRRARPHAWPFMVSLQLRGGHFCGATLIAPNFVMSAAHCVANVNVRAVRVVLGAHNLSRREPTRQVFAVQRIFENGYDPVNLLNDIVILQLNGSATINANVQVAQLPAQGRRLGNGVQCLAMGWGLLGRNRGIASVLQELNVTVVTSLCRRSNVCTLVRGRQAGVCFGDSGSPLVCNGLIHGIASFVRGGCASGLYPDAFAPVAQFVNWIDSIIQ
Scale: pIC50 equals -log10([C]), with [C] in mol/L.

Incoming: Need pIC50, item COC(=O)c1ccc(OC(=O)n2nnc3ccccc3c2=O)cc1 [Example 4]
Outgoing: 5.08

Incoming: Do the same for O=C(Oc1ccccc1)n1ncc2ccccc2c1=O [Example 1] please
Outgoing: 6.70

Incoming: Do the same for CCOC(=O)Oc1cccc2c(=O)n(C(=O)OCC)ccc12 [Example 15] please
Outgoing: 5.27

Incoming: Do the same for CCOC(=O)n1c(SCc2ccccc2)nc2ccccc2c1=O [Example 14] please
Outgoing: 5.22
